Values were extracted from paper PMC5522996.

test-target: CYP450 2E1 (Homo sapiens)
Sequence (P05181 whole entry): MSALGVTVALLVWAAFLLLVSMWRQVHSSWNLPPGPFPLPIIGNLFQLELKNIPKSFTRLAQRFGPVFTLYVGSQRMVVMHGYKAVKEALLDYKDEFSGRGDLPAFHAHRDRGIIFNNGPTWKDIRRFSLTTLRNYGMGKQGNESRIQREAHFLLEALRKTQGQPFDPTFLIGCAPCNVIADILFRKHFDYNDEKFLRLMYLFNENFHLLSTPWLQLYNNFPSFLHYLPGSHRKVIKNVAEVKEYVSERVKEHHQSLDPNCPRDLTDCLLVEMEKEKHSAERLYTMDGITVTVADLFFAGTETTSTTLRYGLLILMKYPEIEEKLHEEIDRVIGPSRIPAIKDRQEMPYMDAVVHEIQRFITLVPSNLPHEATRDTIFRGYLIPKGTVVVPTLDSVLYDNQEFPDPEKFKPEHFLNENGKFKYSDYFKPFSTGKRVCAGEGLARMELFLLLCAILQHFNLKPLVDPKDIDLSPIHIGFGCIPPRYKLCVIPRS
pIC50: −log10 of the molar value.
quantity-kind: pIC50

Request: Param item = C[C@H](CO)NC(=O)c1cccc(/C=C\CCCC(=O)N(C)C)c1 [VSN16R] ; retrieve measured pIC50.
Result: < 5.00

====

test-target: CYP450 1A2 (Homo sapiens, UniProt P05177)
Sequence (P05177 1-516): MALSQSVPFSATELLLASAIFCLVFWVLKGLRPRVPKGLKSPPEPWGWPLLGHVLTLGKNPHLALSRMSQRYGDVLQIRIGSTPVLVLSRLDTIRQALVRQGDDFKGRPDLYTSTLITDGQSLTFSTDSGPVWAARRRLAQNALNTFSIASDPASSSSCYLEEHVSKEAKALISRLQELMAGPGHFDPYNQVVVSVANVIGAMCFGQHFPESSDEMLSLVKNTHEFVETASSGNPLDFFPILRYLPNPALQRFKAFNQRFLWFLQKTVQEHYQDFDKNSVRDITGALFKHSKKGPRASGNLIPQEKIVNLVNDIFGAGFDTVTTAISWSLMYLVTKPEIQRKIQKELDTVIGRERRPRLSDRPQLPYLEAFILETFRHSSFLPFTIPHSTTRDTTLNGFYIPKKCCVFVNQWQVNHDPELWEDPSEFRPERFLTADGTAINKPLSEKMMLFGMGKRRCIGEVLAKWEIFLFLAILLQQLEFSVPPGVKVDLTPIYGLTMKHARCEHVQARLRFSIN
quantity-kind: IC50

Request: Any idea what its IC50 is? The compound is C[C@H](CO)NC(=O)c1cccc(/C=C\CCCC(=O)N(C)C)c1 [VSN16R]
Result: > 10 µM

====

protocol-details: Water solubility
Format: physicochemical
quantity-kind: solubility

Request: What solubility value was documented for this compound, C[C@H](CO)NC(=O)c1cccc(/C=C\CCCC(=O)N(C)C)c1 [VSN16R] ?
Result: > 30 mg/mL

====

protocol-details: Stability in pooled mouse plasma
Type: in vitro ADME
measurement-context: 37°C, upper limit 100 min, read-out: t ½ in plasma
quantity-kind: half-life at 1 μM (min)
Please state the figure in min; there is no need to write the unit.

Request: What value of half-life at 1 μM has been reported for the following molecule? CC(=O)Oc1ccc(C(c2ccc(OC(C)=O)cc2)c2ccccn2)cc1 [bisacodyl, reference compound]
Result: 2

====

test-target: CYP450 2A6 (Homo sapiens)
protocol-details: CYP450 inhibition of substrate binding
quantity-kind: EC50 (nM)
Field: numeric (nM). Do not append units.

Request: Request the reported EC50 associated with N[C@@H]1C[C@H]1c1ccccc1 (racemic) [Tranylcypromine, reference compound]
Result: 200

====

test-target: CYP450 2A6 (Homo sapiens, UniProt P11509)
Sequence (P11509 whole entry): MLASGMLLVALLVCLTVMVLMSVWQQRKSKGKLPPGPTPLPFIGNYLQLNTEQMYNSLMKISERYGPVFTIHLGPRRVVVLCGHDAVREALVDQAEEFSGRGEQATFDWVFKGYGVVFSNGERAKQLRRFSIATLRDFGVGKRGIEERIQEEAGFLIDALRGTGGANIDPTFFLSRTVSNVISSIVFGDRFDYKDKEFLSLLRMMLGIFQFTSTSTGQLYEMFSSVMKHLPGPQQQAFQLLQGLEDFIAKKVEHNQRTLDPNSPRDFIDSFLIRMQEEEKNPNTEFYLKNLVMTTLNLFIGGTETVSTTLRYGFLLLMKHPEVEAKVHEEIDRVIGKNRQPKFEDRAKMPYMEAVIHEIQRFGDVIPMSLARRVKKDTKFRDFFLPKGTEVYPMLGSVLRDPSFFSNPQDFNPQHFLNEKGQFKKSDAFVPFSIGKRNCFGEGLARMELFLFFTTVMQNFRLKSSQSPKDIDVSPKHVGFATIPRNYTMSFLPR
pIC50: −log10 of the molar value.
quantity-kind: pIC50

Request: Give pIC50 (CYP450 2A6 (Homo sapiens, UniProt P11509)) of the following molecule: C[C@H](CO)NC(=O)c1cccc(/C=C\CCCC(=O)N(C)C)c1 [VSN16R]
Result: < 5.00

====

test-target: CYP450 2D6 (Homo sapiens, UniProt P10635)
Sequence (P10635 whole entry): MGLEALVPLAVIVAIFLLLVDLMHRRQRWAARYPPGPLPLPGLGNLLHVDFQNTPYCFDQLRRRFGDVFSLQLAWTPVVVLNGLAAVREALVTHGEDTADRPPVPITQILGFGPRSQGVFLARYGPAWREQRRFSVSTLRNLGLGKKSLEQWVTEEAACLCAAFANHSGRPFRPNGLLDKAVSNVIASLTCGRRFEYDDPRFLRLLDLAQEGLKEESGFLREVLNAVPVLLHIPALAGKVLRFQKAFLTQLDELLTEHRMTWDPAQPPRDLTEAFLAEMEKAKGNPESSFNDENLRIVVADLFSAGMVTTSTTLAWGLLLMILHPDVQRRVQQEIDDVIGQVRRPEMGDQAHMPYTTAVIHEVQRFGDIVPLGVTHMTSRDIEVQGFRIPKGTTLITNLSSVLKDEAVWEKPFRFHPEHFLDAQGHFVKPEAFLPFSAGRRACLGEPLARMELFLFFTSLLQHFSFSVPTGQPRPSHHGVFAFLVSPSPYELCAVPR
quantity-kind: IC50

Request: State the recorded IC50 for this entry: C[C@H](CO)NC(=O)c1cccc(/C=C\CCCC(=O)N(C)C)c1 [VSN16R]
Result: > 30 µM

====

test-target: CYP450 2C8 (Homo sapiens)
Sequence (P10632 whole entry): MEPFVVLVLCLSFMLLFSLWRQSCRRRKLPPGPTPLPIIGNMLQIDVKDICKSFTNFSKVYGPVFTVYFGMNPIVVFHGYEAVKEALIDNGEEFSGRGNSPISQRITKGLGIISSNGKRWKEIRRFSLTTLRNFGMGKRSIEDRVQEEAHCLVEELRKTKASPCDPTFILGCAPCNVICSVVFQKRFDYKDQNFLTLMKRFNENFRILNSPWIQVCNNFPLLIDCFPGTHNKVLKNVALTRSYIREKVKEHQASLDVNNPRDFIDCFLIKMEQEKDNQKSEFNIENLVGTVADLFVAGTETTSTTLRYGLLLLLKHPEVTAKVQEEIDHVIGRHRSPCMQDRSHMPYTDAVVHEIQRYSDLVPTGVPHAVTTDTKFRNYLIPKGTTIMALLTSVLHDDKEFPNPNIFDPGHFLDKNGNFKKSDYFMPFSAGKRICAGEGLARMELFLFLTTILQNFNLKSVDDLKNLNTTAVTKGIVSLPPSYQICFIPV
quantity-kind: IC50

Request: Notebook entry, CYP450 2C8 (Homo sapiens) assay: IC50 of C[C@H](CO)NC(=O)c1cccc(/C=C\CCCC(=O)N(C)C)c1 [VSN16R] = ?
Result: > 10 µM

====

protocol-details: Phase I pharmacokinetics in healthy humans
Assay type: in vivo, human
measurement-context: male, human, plasma, po; 25 mg p.o.
quantity-kind: bioavailability (%)
Report the value in % with no unit label.

Request: For the compound C[C@H](CO)NC(=O)c1cccc(/C=C\CCCC(=O)N(C)C)c1 [VSN16R] , what bioavailability is on record?
Result: 100

====

test-target: CYP450 2B6 (Homo sapiens)
Sequence (P20813 1-491): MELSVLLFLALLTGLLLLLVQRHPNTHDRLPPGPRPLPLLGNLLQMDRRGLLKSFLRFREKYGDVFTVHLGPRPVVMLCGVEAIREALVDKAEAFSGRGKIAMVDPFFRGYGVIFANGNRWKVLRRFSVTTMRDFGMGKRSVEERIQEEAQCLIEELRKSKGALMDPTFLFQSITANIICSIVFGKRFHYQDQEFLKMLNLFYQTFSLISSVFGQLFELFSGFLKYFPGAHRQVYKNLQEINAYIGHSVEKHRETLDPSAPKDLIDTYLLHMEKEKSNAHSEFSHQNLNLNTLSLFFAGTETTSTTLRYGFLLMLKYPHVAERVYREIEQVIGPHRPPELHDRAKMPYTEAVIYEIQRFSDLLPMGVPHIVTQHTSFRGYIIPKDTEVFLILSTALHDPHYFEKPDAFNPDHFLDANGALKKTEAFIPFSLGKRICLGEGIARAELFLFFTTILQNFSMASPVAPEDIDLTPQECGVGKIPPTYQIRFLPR
pIC50: −log10 of the molar value.
quantity-kind: pIC50

Request: Could you tell me which pIC50 is on file for C[C@H](CO)NC(=O)c1cccc(/C=C\CCCC(=O)N(C)C)c1 [VSN16R] ?
Result: < 5.00

====

Tested on: mouse vas deferens
protocol-details: Electrically‐evoked contraction of the mouse vas deferens
Assay type: cell-based
measurement-context: Mus musculus, read-out: EC50, inhibition of electrically‐evoked contraction
quantity-kind: pEC50
Scale: pEC50 equals -log10([C]), with [C] in mol/L.

As a guide, the following entries are already answered.
> print(dat)
                                   compound  test.value
1  C[C@@H](CO)NC(=O)c1cccc(/C=C\CCCC(=O)N(C)C)c1 [VSN16S]        7.43
2  C[C@H](CO)NC(=O)c1cccc(/C=C\CCCC(=O)N(C)C)c1 [VSN16R]        8.00

// moving on: another record for pEC50
Request: Given the entry CNC(=O)CCC/C=C\c1cccc(C(=O)N[C@H](C)CO)c1 [VSN22R] , report its measured pEC50.
Result: 8.05

====

protocol-details: Stability in pooled mouse liver microsomes
Type: in vitro ADME
measurement-context: pooled mouse liver microsomes, 37°C, upper limit 100 min, read-out: t ½ in liver microsomes
quantity-kind: half-life at 1 μM

Request: Can you share its half-life at 1 μM? I mean this compound: C[C@H](CO)NC(=O)c1cccc(/C=C\CCCC(=O)N(C)C)c1 [VSN16R]
Result: > 100 min

====

protocol-details: Phase I pharmacokinetics in healthy humans
Type: in vivo, human
measurement-context: male, human, plasma, oral; twice daily dosing of VSN16R; read-out: Steady‐state plasma levels
Each item that follows carries a reported concentration at 1 week.

> print(dat)
                                   compound  test.value
1  C[C@H](CO)NC(=O)c1cccc(/C=C\CCCC(=O)N(C)C)c1 [VSN16R]    > 100 nM

Here is another compound to look at.
Request: So what does the record say about concentration at 1 week for CNC(=O)CCC/C=C\c1cccc(C(=O)N[C@H](C)CO)c1 [VSN22R] ?
Result: > 100 nM

====

test-target: CYP450 2B6 (Homo sapiens)
quantity-kind: EC50 (nM)
// units = nM; emit number, no label

Request: # get_value(readout= EC50, system= CYP450 2B6 (Homo sapiens)) for CC(=O)N1CCN(c2ccc(OCC3COC(Cn4ccnc4)(c4ccc(Cl)cc4Cl)O3)cc2)CC1 (stereo not shown) [Ketoconazole, reference compound]
Result: 2900

====

test-target: CYP450 1A2 (Homo sapiens)
Sequence (P11511 whole entry): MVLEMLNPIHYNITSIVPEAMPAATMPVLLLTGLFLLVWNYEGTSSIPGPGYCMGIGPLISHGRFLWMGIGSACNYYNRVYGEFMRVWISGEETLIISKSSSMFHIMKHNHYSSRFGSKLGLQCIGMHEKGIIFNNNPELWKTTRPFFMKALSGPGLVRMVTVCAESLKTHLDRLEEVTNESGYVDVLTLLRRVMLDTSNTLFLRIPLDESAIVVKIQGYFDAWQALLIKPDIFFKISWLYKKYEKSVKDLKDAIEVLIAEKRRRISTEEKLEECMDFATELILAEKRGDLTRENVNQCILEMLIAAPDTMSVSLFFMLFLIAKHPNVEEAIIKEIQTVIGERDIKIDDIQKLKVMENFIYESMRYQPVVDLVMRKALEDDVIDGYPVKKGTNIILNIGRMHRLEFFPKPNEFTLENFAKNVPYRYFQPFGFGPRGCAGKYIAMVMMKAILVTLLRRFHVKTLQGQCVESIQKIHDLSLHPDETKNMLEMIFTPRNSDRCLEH
quantity-kind: IC50

Request: Which measured IC50 value corresponds to C[C@H](CO)NC(=O)c1cccc(/C=C\CCCC(=O)N(C)C)c1 [VSN16R] ?
Result: > 10 µM

====

test-target: CYP450 2C9 (Homo sapiens, UniProt P11712)
Sequence (P11712 whole entry): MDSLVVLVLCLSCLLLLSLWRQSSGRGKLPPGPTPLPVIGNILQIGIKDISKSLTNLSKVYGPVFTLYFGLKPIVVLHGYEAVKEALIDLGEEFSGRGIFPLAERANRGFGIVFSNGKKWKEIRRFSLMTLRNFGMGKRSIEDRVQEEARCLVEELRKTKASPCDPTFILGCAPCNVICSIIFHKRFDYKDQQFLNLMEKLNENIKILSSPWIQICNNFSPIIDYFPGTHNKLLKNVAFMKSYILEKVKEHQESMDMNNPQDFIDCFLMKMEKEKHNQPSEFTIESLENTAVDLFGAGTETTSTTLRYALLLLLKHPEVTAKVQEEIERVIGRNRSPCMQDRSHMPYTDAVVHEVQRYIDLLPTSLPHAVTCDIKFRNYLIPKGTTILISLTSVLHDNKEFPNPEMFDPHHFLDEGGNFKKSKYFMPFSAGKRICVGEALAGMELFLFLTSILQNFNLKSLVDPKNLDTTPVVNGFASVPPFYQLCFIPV
pIC50: −log10 of the molar value.
quantity-kind: pIC50

Request: Recall the recorded pIC50 for C[C@H](CO)NC(=O)c1cccc(/C=C\CCCC(=O)N(C)C)c1 [VSN16R] with CYP450 2C9 (Homo sapiens, UniProt P11712) and state it.
Result: < 5.00
